- System tested: furin, P09958;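 note: purified furin at 1:10 enzyme:substrate in 50 mM HEPES pH 7.5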
- Sequence (P09958 whole entry): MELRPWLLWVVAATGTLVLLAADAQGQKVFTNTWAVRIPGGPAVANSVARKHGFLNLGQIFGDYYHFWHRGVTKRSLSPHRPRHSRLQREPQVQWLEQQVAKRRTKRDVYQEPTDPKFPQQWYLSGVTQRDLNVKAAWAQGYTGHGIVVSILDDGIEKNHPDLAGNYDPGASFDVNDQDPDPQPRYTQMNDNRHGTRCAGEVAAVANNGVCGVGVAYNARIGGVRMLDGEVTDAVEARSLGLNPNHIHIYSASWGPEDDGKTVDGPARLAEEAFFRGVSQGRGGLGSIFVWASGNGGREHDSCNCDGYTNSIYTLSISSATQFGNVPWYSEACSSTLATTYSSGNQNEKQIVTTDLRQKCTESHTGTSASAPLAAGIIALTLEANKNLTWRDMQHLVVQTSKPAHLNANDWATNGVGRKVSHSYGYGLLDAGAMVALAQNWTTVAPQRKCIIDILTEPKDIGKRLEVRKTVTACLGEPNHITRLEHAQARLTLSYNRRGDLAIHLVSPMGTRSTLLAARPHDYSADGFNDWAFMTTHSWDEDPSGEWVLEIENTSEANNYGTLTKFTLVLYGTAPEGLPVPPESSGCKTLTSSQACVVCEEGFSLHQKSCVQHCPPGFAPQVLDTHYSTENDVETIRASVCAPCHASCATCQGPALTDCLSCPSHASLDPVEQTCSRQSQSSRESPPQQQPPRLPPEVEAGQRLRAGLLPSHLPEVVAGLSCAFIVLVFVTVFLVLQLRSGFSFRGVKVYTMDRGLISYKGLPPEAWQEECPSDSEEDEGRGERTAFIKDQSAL
- Protocol notes: furin cleavage Z-score vs untreated control; higher = more cleavage, active = 3.5 or more, inactive = 1 or less, 8 variable residues between constant flanks
- Test conditions: 15 min
This is one part of the list. No count for the full screen is at hand.
Property measured: furin cleavage Z-score
Please reply with the number alone, leaving off any unit.

get_value(item= CARSRREASGAGNASASA [FS-2311] , readout=furin cleavage Z-score) returns 2.31

get_value(item= CACCTTPCSGAGNASASA [HC1960] , readout=furin cleavage Z-score) returns -0.424

get_value(item= CAMEECSKHLAGNASASA [HC1734] , readout=furin cleavage Z-score) returns 1.71

get_value(item= CAYPWPLYGNAGNASASA [HC201] , readout=furin cleavage Z-score) returns 1.01

get_value(item= CANLLSVEEAAGNASASA [HC1411] , readout=furin cleavage Z-score) returns -1.37

get_value(item= CAEVVTSTWSAGNASASA [HC2257] , readout=furin cleavage Z-score) returns -0.0297

get_value(item= CAGFLRKRREAGNASASA [FS-426] , readout=furin cleavage Z-score) returns 11.2

get_value(item= CASSSRDPRAAGNASASA [FS-1573] , readout=furin cleavage Z-score) returns 0.526

get_value(item= CAPKSPPVPPAGNASASA [HC1320] , readout=furin cleavage Z-score) returns 0.94

get_value(item= CALRKLGVPPAGNASASA [HC1615] , readout=furin cleavage Z-score) returns 0.845

get_value(item= CARLKRVEDQAGNASASA [FS-1907] , readout=furin cleavage Z-score) returns 0.449

get_value(item= CAEVQTSTWVAGNASASA [HC2202] , readout=furin cleavage Z-score) returns 1.29

get_value(item= CAKIKRSVSPAGNASASA [FS-2247] , readout=furin cleavage Z-score) returns 3.63

get_value(item= CAVWCCSMSYAGNASASA [HC2008] , readout=furin cleavage Z-score) returns -0.334

get_value(item= CAMEECAQHLAGNASASA [HC21] , readout=furin cleavage Z-score) returns -0.0837

get_value(item= CARYIRSERSAGNASASA [FS-1611] , readout=furin cleavage Z-score) returns 8.32

get_value(item= CAEKTTPCSGAGNASASA [HC1974] , readout=furin cleavage Z-score) returns -0.951

get_value(item= CARSRRPADTAGNASASA [FS-3210] , readout=furin cleavage Z-score) returns -0.606

get_value(item= CAFAQALPVWAGNASASA [HC1301] , readout=furin cleavage Z-score) returns 0.477

get_value(item= CATTPCSGSQAGNASASA [HC1942] , readout=furin cleavage Z-score) returns -0.54

get_value(item= CARHRARSVRAGNASASA [HC1621] , readout=furin cleavage Z-score) returns 5.34

get_value(item= CAPRCLVDYPAGNASASA [HC463] , readout=furin cleavage Z-score) returns -0.558

get_value(item= CAKYIMTCMSAGNASASA [HC982] , readout=furin cleavage Z-score) returns -0.454

get_value(item= CATNPCSGSWAGNASASA [HC1861] , readout=furin cleavage Z-score) returns -0.755

get_value(item= CATTPCSGHWAGNASASA [HC1915] , readout=furin cleavage Z-score) returns 1.87

get_value(item= CASTVRSLRSAGNASASA [FS-566] , readout=furin cleavage Z-score) returns 4.24

get_value(item= CATTPCSGWWAGNASASA [HC1908] , readout=furin cleavage Z-score) returns -1.44

get_value(item= CARLKRALDFAGNASASA [FS-2219] , readout=furin cleavage Z-score) returns 7.48

get_value(item= CARLKRQPCAAGNASASA [FS-3227] , readout=furin cleavage Z-score) returns -0.962
